Values from the Human Domainome abundance scans (Beltran et al. 2025)

B1: Tudor domain-containing protein 3, residues 554 to 611; numbered along this chain, Q9H7E2 (parent)
chain: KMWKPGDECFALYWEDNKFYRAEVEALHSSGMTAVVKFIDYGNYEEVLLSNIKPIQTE

# Variants of: B1
# assayText: abundance fitness (aPCA) (normalised: wild type 0, dead -1); higher = more abundant; growth selection in yeast, the domain comes from the species named
# testContext: Homo sapiens
propertyLabel: abundance fitness
Returns: the value as a bare number; no unit string appended.

Some entries whose results are on file:
mutationid=L49V experimentalresult=-0.046
mutationid=C9Q experimentalresult=-0.93

Req: Return reported abundance fitness; argument: L12F
Resp: -0.493
